assayed-system: T1, human CNTN4 antigen expressed on the cell membrane of 293FT cells (human, UniProt Q8IWV2 19-1000)
T1 construct: whole, on cells; also called Human CNTN4 transfected cell
T1 sequence (looked up): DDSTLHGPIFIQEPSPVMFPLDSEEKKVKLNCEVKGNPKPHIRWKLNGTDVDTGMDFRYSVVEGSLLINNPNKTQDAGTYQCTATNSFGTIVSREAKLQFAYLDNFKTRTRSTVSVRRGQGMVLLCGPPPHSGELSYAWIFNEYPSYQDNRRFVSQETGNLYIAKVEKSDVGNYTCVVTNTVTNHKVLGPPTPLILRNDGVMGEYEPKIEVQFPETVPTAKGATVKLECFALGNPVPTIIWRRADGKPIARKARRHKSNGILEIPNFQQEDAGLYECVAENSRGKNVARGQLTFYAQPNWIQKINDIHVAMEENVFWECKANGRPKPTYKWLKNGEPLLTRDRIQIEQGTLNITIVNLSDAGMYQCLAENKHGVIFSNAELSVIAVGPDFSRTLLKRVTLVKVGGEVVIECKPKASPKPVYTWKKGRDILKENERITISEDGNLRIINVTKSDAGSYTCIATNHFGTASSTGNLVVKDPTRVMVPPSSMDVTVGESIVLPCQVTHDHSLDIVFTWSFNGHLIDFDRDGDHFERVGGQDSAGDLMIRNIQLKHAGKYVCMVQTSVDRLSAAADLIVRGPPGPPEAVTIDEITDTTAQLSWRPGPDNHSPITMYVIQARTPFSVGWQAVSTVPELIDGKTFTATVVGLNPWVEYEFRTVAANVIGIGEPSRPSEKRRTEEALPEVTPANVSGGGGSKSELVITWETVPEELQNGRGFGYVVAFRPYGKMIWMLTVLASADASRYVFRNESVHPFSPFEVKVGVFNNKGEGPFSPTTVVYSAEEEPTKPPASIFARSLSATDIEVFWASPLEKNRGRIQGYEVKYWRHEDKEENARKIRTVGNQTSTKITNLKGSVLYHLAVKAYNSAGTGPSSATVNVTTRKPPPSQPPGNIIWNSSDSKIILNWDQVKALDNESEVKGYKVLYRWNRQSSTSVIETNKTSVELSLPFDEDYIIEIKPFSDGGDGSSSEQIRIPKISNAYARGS
measurement-notes: FACS, 293FT cells transfected with human CNTN4, 40 ug/mL, anti-hFc-PE
Quick list: Shift % per entry.
readout-kind: Shift % (%)

binder	number
anti-CNTN4 IgG A13WB24 (antibody, V domains shown, human IgG4 (S228P)) VH: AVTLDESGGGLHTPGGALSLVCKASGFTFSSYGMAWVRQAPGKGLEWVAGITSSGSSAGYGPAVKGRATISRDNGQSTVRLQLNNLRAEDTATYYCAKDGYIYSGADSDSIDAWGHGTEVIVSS VL: ALTQPSSVSANPGGTVEITCSGGGNNNYGWYQQKSPGSAPVTLIYYNDNRPSDIPSRFSGSKSGSTATLTITGVQAEDEAVYYCGGYDISYVDIFGAGTTLTVL	85.1
anti-CNTN4 IgG A13SF1 (antibody, V domains shown, human IgG4 (S228P)) VH: AVTLDESGGGLQTPGGGLSLVCKASGFTFSSYGMAWVRQAPGKGLEWVAGITSSGSSAGYGPAVKGRATISRDNGQSTVRLQLNNLRAEDTATYYCAKDGYIYSGADSDSIDAWGHGTEVIVSS VL: ALTQPSSVSANLGGTVKITCSGGGGSYGWFQQKSPGSAPVTLIYNNNNRPSDIPSRFSGSKSGSTATLTITGVQAEDEAVYFCGGYDSSTYVGTFGAGTTLTVL	83.8
anti-CNTN4 IgG A13SF19 (antibody, V domains shown, human IgG4 (S228P)) VH: AVTLDESGGGLHTPGGALSLVCKASGFTFSSYGMAWVRQASGKGLEWVAGITSSGSSAGYGPAVKGRATISRDNGQSTVRLQLNNLRAEDTATYYCAKDGYIYSGADSDSIDAWGHGTEVIVSS VL: ALTQPSSVSANLGGTVEITCSGSSSGNYGWYQQKSPGSAPVTVIYYNDERPSDIPSRFSGSKSGSTGTLTITGVQAEDEAVYYCGGYEGSTYVGIFGAGTTLTVL	79.6
anti-CNTN4 IgG A13WB2 (antibody, V domains shown, human IgG4 (S228P)) VH: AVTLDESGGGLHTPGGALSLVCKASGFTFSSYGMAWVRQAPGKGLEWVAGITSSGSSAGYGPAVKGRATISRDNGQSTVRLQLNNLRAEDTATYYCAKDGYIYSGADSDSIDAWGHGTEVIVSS VL: ALTQPSSVSANLGGTVEITCSGGYSGYGWYQQKSPGSAPVTLIYYNDKRPSDIPSRFSGSKSGSTGTLTITGVQAEDEAVYFCGSRDSSTYVDIFGAGTTLTVL	86.6
anti-CNTN4 IgG A13SF2 (antibody, V domains shown, human IgG4 (S228P)) VH: AVTLDESGGGLQTPGGALSLICKASGFTFSSYGMAWVRQAPGKGLEWVAGITSSGSSAGYGPAVKGRATISRDNGQSTVRLQLNNLRAEDTATYYCAKDGYIYSGADSDSIDAWGHGTEVIVSS VL: ALTQPSSVSANLGGTVKITCSGGGGSYGWYRQKSPGSAPVTLIYNNNNRPSDIPSRFSGSTSGSTGTLTITGVQADDEAVYFCGGYDSSAGYAALFGAGTTLTVL	83.5

From: patent US20240182563A1
